# procedure text: Mouse pharmacokinetics study (intravenous and oral)
# Type: in vivo
# condition info: mouse, plasma; CD-1 mice, IV 5 mg/kg; read-out: Clp
assay endpoint: clearance (mL/min/kg)
Please give a number only; it is taken to be in mL/min/kg.

Query (compound): Cc1cc(F)c(NC(=O)c2cc(C(C)(C)C#N)ccn2)cc1C1=Cc2cnc(NC3COC3)nc2N2CCN=C12 ; field requested: clearance
28.5

Then what about the compound CNc1ncc2c(n1)N1CCN=C1C(c1cc(NC(=O)c3cc(C(C)(C)C#N)ccn3)ccc1C)=C2 ?
48.8

Then what about the compound Cc1cc(F)c(NC(=O)c2cc(C(C)(C)C#N)ccn2)cc1C1=Cc2cnc(Nc3cnn(C)c3)nc2N2CCN=C12 ?
27.8

Then what about the compound Cc1cc(F)c(NC(=O)c2cc(C(F)(F)F)ccn2)cc1C1=Cc2cnc(NC3COC3)nc2N2CCN=C12 ?
17
